# System: MS2 coat protein
# procedure summary: apparent KD of MS2 coat protein; higher = weaker reporter binding
# stated conditions: Eterna round: R107; input ligand: tryptophan 2.4 mM
readout type: apparent KD of MS2 coat protein (nM)
Number in nM, nothing else.

In the examples that follow, each entry is paired with its recorded apparent KD of MS2 coat protein.
[[record]]
sequence_record = "UGCAUCAUAAUCAUGUUGGUGCUAGGUGAUACCAGCAUCGAAAGAUGCCCUUGGCAGCACCAACAUGAGGAUCACCCAUGUAAUA [(MT)''-(M)'-(T')-(Theo)-(Ms2)_Design1/22_2]"
result_number = 27

[[record]]
sequence_record = "CCUCAUGUGGUGCUGCACAUGAGAGGUGAUACCAGCAUCGAAAGAUGCCCUUGGCAGCACCAACAUGAGGAUCACCCAUGUAAUA [(M)'-(T)'-(M)''-(T1)-(T2)-(M1)-(M2)_Design1]"
result_number = 25


Problem: Consider the sequence ACAUGAGGAUCACCCAUGUGGCGACUUGAUACCAGACCCGCACUAGUCCCUUGGCAGCAACUACGUGUGGGACACCCAUGUGAAG [aszkullin] . State its measured apparent KD of MS2 coat protein.
Solution: 20.2

Problem: Indicate the recorded apparent KD of MS2 coat protein value for this sequence: CGAUAGGGUCAAUACCUAAUCAUAUCUGAAGGAGCGUGGAUAUACACAGGUAGGUCGCAGAAUCACAUGAGGAUCACCCAUGUCC [Same State Arginine A GF13]
Solution: 96.5

Problem: # return recorded apparent KD of MS2 coat protein for entry UUAUUUAUAAUGGAUACCAGUAUAAUGGCCGCAAAUCCUGACAUGAGGAUCACCCAUGUAUGCCCUUGGCAGCUGUUAUGGGUUU [XTheo B #23]
Solution: 38.7

====

# reported apparent KD of K4 kissing-loop reporter; entries follow
# Test system: K4 kissing-loop RNA reporter;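 also: bound reporter read as fluorescence of individual clusters on recovered sequencing chips by microscopy, with normalized cluster intensities fitted with a binding model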
# procedure summary: apparent KD of K4 kissing-loop reporter; higher = weaker reporter binding
# stated conditions: Eterna round: R107; input ligand: theophylline 20 uM
Answer format: value, then unit.

[[record]]
sequence_record = "GAUUGUGAUGGAAACAUCGCAAUCUCUGAAGGAGCGCGUGAAAACGCAGGUAGGUCGCAGGACGACAAAGACAGUGAUGUUGUCA [Ex Arginine A K4 1]"
readout_type = "apparent KD of K4 kissing-loop reporter"
result = "369 nM"

[[record]]
sequence_record = "CAUACGCAUGGAGGAUAUGAGAUUUUUCAUAUUAUUUUUUAUUCUCAGUGAUGUUGGGAUUUAUAAUCAGAAGGCCAUGUGUAUG [Ex FMN B 11]"
readout_type = "apparent KD of K4 kissing-loop reporter"
result = "94.7 nM"

[[record]]
sequence_record = "AUUUUGUUGUCAGGAUAUUAGUAUGGUUUUGGUUUGUUAGUGAUGUUGAUGUUUUGUUUAUGUAUUUAAGAAGGGAUUUAGCGGU [aqaawgumullin]"
readout_type = "apparent KD of K4 kissing-loop reporter"
result = "401 nM"

[[record]]
sequence_record = "AGUGUUUGGUUAGAUACCAGCCGUCUGUGGAUAAUCCUCAGACCGCCAGUGAUGUUGGCAGGCCCUUGGCAGCUAACAGGACAGA [Ersoed]"
readout_type = "apparent KD of K4 kissing-loop reporter"
result = "233 nM"

[[record]]
sequence_record = "GCGCGUCAUGUCAGCGGUGACUCUGUCGAUACCAGCGCCGCAAGGCGCCCUUGGCAGCGACGCGCUGGAGUGAUGUUCCAGCGUG [#2 Exclusion - Theophylline A Attempt #13 (HarryS)]"
readout_type = "apparent KD of K4 kissing-loop reporter"
result = "150 nM"

[[record]]
sequence_record = "CUCCUUGGCUAAGGAUAUCGUAGUGAUGUUAUGGUCUUUGCUAAGACUUCUGAUAUUGAAUUCCGACGAGAAGGUAGAAGGACGG [theeternabot_exclusion_KL_FMN_B_18]"
readout_type = "apparent KD of K4 kissing-loop reporter"
result = "745 nM"

[[record]]
sequence_record = "UAUAUAGUGACGGCCGCCACUAUAGUAAUGUUUUUGUUAGAGUGAUGUUUUGUUUUUUAAUUUUAUAGGACCGGGUUAUAUGUUA [llpmullin]"
readout_type = "apparent KD of K4 kissing-loop reporter"
result = "376 nM"

[[record]]
sequence_record = "AGGUUUUGAUUAGGAUAUGCACUGACGACGAGAAUAUAGUGAUGUUAUAUACUACGAAUUAGUAGAGUAGAAGGGAUUGAGGUUU [SSFMNB.Y]"
readout_type = "apparent KD of K4 kissing-loop reporter"
result = "322 nM"


Moving on to the next sequence.
Problem: Quickly give me recorded apparent KD of K4 kissing-loop reporter for UUUUUAUGCAGUGAUGUUGCUAAUAUAACAGAGGAUAUGCAUUAAUGCAGAAGGCUGAAAUACUAUACUUUAAUAAAUUAAAUUU [JR_SSFMNA_Sub014]
Solution: 134 nM

Entry source: the supplement of paper PMC9170038
